assay: CD spectroscopy, helicity at 5 °C; type: physicochemical; conditions: PBS pH 7.4, 10 μM individual peptide
Give Helicity at 5 °C (%) for every item shown.
Numbers only, in %.

Consider the reported Helicity at 5 °C (%) for these substances:
Ac-G ELEALAQ ESEALAK ELEALAW ELEALAQ G-NH2 [apCC-Tet-A-S10, acidic antiparallel peptide with Ser at position 10]    48
Ac-G KLKALAQ KLKALAK KRRASAW KLKALAQ G-NH2 [apCC-Tet-B-RRXS20, basic antiparallel peptide with PKA site, Ser at position 20]    38

Input line: For the substance Ac-G KLKALAQ KLKALAK KLKASAW KLKALAQ G-NH2 [apCC-Tet-B-S20, basic antiparallel peptide with Ser at position 20] , what Helicity at 5 °C (%) is on record?
Output line: 40
